Source: ChEMBL document CHEMBL2073845

# target.desc: OCT3 (SLC22A3) (Mus musculus)
# test.description: in vitro
# condition.context: human, HRPE cells that express OCT3, probe TEA
metric: inhibition at 5000 µM

The observed inhibition at 5000 µM for CN/C(=N/CCSCc1nc[nH]c1C)NC#N when tested with OCT3 (SLC22A3) (Mus musculus) stands at > 90%

----------
# target.desc: OCT3 (SLC22A3) (Mus musculus, UniProt Q9WTW5)
# Sequence (Q9WTW5 whole entry): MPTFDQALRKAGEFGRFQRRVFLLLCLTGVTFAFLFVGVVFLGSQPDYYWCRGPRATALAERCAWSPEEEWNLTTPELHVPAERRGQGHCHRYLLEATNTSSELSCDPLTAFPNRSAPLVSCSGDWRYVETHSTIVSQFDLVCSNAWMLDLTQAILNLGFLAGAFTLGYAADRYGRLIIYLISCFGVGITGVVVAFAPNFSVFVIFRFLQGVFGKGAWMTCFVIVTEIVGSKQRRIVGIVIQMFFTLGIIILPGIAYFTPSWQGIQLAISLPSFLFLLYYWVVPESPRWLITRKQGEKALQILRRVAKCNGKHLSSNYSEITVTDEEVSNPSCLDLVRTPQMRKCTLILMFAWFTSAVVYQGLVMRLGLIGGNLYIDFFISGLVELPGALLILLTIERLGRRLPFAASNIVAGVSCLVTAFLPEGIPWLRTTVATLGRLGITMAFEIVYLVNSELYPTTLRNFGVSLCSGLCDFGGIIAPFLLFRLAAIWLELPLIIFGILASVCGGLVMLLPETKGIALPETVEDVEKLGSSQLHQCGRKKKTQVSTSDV
# test.description: TP_TRANSPORTER: inhibition of TEA uptake (TEA: 20 uM, MPTP: 5000 uM) in OCT3-expressing HRPE cells
# Assay type: functional, cell-based
# condition.context: human, HRPE cells that express OCT3, probe TEA
metric: inhibition at 5000 µM

Entry CN1CC=C(c2ccccc2)CC1 , inhibition at 5000 µM reported as > 90%

----------
# target.desc: OCT3 (SLC22A3) (Mus musculus, UniProt Q9WTW5)
# test.description: TP_TRANSPORTER: inhibition of TEA uptake (TEA: 20 uM, MPP+: 5000 uM) in OCT3-expressing HRPE cells
# Format: functional, cell-based
# condition.context: human, HRPE cells that express OCT3, probe TEA
metric: inhibition at 5000 µM

Memo: C[n+]1ccc(-c2ccccc2)cc1 , reported inhibition at 5000 µM: > 90%

----------
# target.desc: Solute carrier family 22 member 3 (Homo sapiens)
# Sequence (O75751 whole entry): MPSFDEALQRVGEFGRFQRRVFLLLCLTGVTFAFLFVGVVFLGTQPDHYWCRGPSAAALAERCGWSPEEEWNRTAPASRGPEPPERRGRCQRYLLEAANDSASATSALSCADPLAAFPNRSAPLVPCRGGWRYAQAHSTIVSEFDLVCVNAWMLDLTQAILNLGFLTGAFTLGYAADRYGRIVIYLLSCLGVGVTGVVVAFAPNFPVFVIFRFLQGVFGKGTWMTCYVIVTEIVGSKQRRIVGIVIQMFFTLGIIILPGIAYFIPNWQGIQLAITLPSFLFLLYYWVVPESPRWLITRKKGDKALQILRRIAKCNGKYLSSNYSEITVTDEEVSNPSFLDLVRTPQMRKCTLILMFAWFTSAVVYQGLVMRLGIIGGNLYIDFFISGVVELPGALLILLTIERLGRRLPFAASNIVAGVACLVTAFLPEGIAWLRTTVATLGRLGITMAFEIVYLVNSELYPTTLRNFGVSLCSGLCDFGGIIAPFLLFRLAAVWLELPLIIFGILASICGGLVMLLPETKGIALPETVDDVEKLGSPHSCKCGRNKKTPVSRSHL
# test.description: TP_TRANSPORTER: inhibition of MPP+ uptake in OCT3-expressing HRPE cells
metric: pKi
Bear in mind: pKi is minus log10 of a mol/L concentration; give just that figure.

As a guide, the following entries are already answered.
Sample N=C(N)N ; pKi observed: 2.21

# pKi of Clc1cccc(Cl)c1N=C1NCCN1 = 3.43

Looking up CC[N+](CC)(CC)CC , I found its pKi recorded as 2.86

In plain terms, C[n+]1ccc(-c2ccccc2)cc1 has a documented pKi of 4.27

Sure, the documented pKi for CNCCCN1c2ccccc2CCc2ccccc21 is 4.85

CN(C)CCCN1c2ccccc2CCc2ccccc21 yielded pKi of 4.38

---
Lab note: CCN(CC)CCNC(=O)c1ccc(N)cc1 [PROCAINAMIDE] gave pKi of 3.13
